The origin of these recorded values is the NIST ThermoML archive (doi:10.1021/acs.jced.8b00725).

- Measurement Context: 313.15 K; 100 kPa; Liquid; Vibrating tube method
// mass density lookup, one value per entry
Measured Endpoint: mass density (kg/m3)

In [3]: df
Out[3]:
                                   compound    value
0  CC[NH+](CC)CC.CS(=O)(=O)[O-] [triethylammonium methanesulfonate]  1107.13
1  CCC(=O)[O-].OCC[NH+](CCO)CCO [triethanolammonium propanoate]  1127.31
2  CC[NH+](CC)CC.O=C([O-])c1ccccc1 [triethylammonium benzoate]  1087.87
3  CC[NH+](CC)CC.O=C([O-])C(F)(F)F [triethylammonium trifluoroacetate]  1149.21
4  CC[NH2+]CC.O=S(=O)([O-])O [diethylammonium hydrogen sulfate]  1369.99
5  CC[NH+](C)C.O=C([O-])C(F)(F)F [N,N-dimethyl-N-ethylammonium trifluoroacetate]  1195.28
6  CC[NH+](CC)CC.O=S(=O)([O-])C(F)(F)F [triethylammonium trifluoromethanesulfonate]  1252.45
7  CC(=O)O.CCN(CC)CC [triethylammonium acetate]   998.33
8  CCN(CC)CC.O=C(O)c1ccccc1O [triethylammonium salicylate]  1086.08
